Values were extracted from patent US9149038B2.

Test system: Wheat and Barley and weed species
Assay: Post-Emergent Test III: postemergent herbicidal activity in wheat and barley, visual rating after 21 d and probit GR20/GR50/GR80/GR90 (Tables 9-13)
Assay type: in vivo
Conditions: MATCH wild chamomile (Matricaria recutita L.); 17.5 g ai/ha
Procedure: Herbicidal evaluations were made visually on a scale of 0 to 100 where 0 represents no activity and 100 represents complete plant death. […] A weighed amount, determined by the highest rate to be tested, of each test compound was placed in a 25 mL glass vial and was dissolved in 4 mL of a 97:3 v/v mixture of acetone and DMSO to obtain concentrated stock solutions. […]
Assay metric: Visual Growth Reduction (%) 21 Days After Application MATCH

• COC(=O)c1nc(-c2ccc(Br)c3c2OC(F)(F)O3)c(F)c(N)c1Cl = G (0-29)
• Nc1c(F)c(-c2ccc3c(c2F)OC(F)(F)O3)nc(C(=O)O)c1Cl = G (0-29)
• Nc1c(F)c(-c2cc3c(cc2F)OC(F)(F)O3)nc(C(=O)O)c1Cl = G (0-29)

---

Let's look at some molecules and their measured pest or weed control at 70 g/ha.
test system: Wheat and Barley and weed species; assay: Post-Emergent Test III: postemergent herbicidal activity in wheat and barley, visual rating after 21 d and probit GR20/GR50/GR80/GR90 (Tables 9-13); assay type: in vivo; settings: post-emergence, 504 h; LOLSS ryegrass; 70 g ai/ha; read-out: Visual Growth Reduction (%) 21 Days After Application LOLSS
Assay metric: pest or weed control at 70 g/ha

* COC(=O)c1nc(-c2ccc3c(c2)OC(C)(C)O3)c(F)c(N)c1Cl | 30 to 44%
* Nc1c(F)c(-c2ccc3c(c2F)OC(F)(F)O3)nc(C(=O)O)c1Cl | 75 to 84%
* Nc1c(F)c(-c2ccc3c(c2)OC(F)(F)O3)nc(C(=O)O)c1Cl | 60 to 74%
* COC(=O)c1nc(-c2c(F)cc3c(c2F)OC(F)(F)O3)cc(N)c1Cl | 45 to 59%
* COC(=O)c1nc(-c2cc3c(cc2F)OC(F)(F)O3)c(F)c(N)c1Cl | 45 to 59%

---

Let's look at some molecules and their measured GR90 BRAPP.
system: Direct Seeded Rice and weed species; assay: Postemergence herbicidal activity in direct seeded rice, visual rating after 20-22 days and probit GR20/GR50/GR80/GR90 (Table 14); assay type: in vivo; settings: BRAPP (Brachiaria platyphylla); probit analysis, dose for 90 percent growth reduction
Assay metric: GR90 BRAPP

• COC(=O)c1nc(-c2ccc3c(c2F)OC(F)(F)O3)c(F)c(N)c1Cl = 24 g ai/ha
• COc1c(C(=O)O)nc(-c2ccc3c(c2)OC(F)(F)O3)c(F)c1N = 13 g ai/ha
• Nc1cc(-c2cc3c(cc2F)OC(F)(F)O3)nc(C(=O)O)c1Cl = 1 g ai/ha
• Nc1c(F)c(-c2ccc3c(c2F)OC(F)(F)O3)nc(C(=O)O)c1Cl = 25 g ai/ha
• COc1c(N)nc(-c2ccc3c(c2F)OC(F)(F)O3)nc1C(=O)O = 16 g ai/ha
• COC(=O)c1nc(-c2ccc3c(c2F)OC(F)(F)O3)cc(N)c1Cl = 39 g ai/ha
• Nc1cc(-c2ccc3c(c2F)OC(F)(F)O3)nc(C(=O)O)c1Cl = 6 g ai/ha
• Nc1c(F)c(-c2cc3c(cc2F)OC(F)(F)O3)nc(C(=O)O)c1Cl = 7 g ai/ha
